Cited source for all entries: ChEMBL document CHEMBL1142893

target: Human immunodeficiency virus type 1 integrase (Human immunodeficiency virus 1); assay: Inhibition of HIV1 integrase strand transfer activity
Sequence (Q7ZJM1 whole entry): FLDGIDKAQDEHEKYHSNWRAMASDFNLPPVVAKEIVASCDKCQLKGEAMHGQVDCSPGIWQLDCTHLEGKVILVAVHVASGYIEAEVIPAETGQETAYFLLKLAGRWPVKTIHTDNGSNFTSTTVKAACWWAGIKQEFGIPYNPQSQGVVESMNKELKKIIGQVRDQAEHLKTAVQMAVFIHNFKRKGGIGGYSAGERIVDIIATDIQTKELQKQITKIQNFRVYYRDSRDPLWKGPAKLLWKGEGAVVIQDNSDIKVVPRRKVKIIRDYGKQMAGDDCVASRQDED
Could you please mark true (1) for values of IC50 below 60 µM and false (0) for values at or above it?

Previously resolved entries follow.
• COC(=O)C(=O)CC(=O)c1ccc(Br)c(CC(=O)c2ccccc2)c1 = false (0)
• Cc1cccc2c1[nH]c(=O)c1cc(C#N)ccc12 = false (0)
• O=C(O)C(=O)CC(=O)c1ccc2ccccc2c1 = true (1)
• Cc1nc2oc3ccccc3c(=O)c2cc1C(=O)CC(=O)C(=O)O = true (1)
• O=C(O)C(=O)CC(=O)c1ccc(Br)c(CC(=O)c2ccccc2)c1 = false (0)
• O=C(O)C(=O)CC(=O)c1ccc2c(ccc3ccccc32)c1 = true (1)

# evaluate next
Challenge: A record lists CC(=O)Nc1ccc2[nH]c(=O)c3ccccc3c2c1 . Is its IC50 below 60 µM?
Response given: false (0)
